The measurements presented in this section are drawn from ChEMBL document CHEMBL1157745.

Assign pKi to each entry below.
# system_tested: Adenosine receptor A2a (Homo sapiens)
# Sequence (P29274 whole entry): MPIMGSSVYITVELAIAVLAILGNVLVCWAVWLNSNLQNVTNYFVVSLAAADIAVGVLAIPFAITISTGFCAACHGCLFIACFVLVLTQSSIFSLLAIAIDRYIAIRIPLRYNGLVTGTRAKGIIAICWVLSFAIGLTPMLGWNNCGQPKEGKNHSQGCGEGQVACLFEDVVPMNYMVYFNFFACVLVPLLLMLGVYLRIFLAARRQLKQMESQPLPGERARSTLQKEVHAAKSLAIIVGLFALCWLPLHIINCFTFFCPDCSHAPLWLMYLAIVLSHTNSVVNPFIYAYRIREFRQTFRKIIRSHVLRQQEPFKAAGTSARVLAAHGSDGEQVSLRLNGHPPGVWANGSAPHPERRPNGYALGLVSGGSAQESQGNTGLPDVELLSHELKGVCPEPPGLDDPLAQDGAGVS
# assay_comment: Displacement of [3H]CGS21680 from human recombinant adenosine A2A receptor expressed in HEK293 cells after 60 mins by scintillation counting
Please report pKi as the negative decimal logarithm of the molar concentration, giving only the number.

I have this molecule here, Cc1cc(C)nc(NC(N)=NCCc2c[nH]c3ccc(F)cc23)n1 , and I need its recorded pKi.
6.70

I have this molecule here, COc1ccc2c(c1)oc1c(-c3ccncc3)c(C#N)c(N)c(C#N)c12 , and I need its recorded pKi.
5.57

I have this molecule here, COc1ccc(-c2cc(=O)[nH]c(Nc3ccccc3)n2)cc1OC , and I need its recorded pKi.
5.44

I have this molecule here, COc1ccc(CCNC(=N)Nc2nc(C)cc(C)n2)cc1 , and I need its recorded pKi.
6.05

I have this molecule here, COc1ccc2c(CCNC(=N)Nc3nc(C)cc(C)n3)c[nH]c2c1 , and I need its recorded pKi.
6.22

I have this molecule here, Cc1cc(C)nc(NC(=N)NCCc2c[nH]c3ccccc23)n1 , and I need its recorded pKi.
6.40

I have this molecule here, NC(=NCCc1c[nH]c2ccccc12)Nc1ncccn1 , and I need its recorded pKi.
5.23

I have this molecule here, Cc1cccc(Nc2nc3c([nH]2)c(=O)n(C)c(=O)n3C)c1 , and I need its recorded pKi.
5.92

I have this molecule here, Cc1ccc2nc(Nc3nc(C)cc(C)n3)[nH]c2c1 , and I need its recorded pKi.
5.89

I have this molecule here, Cc1cc(C)nc(NC(N)=NCCc2ccsc2)n1 , and I need its recorded pKi.
6.40

I have this molecule here, CNc1ccccc1C(=O)/N=C(\N)Nc1nc(C)c2ccccc2n1 , and I need its recorded pKi.
5.06

---

Assign Activity to each entry below.
# system_tested: Adenosine receptor A3 (Homo sapiens) (UniProt P0DMS8)
# Sequence (whole entry): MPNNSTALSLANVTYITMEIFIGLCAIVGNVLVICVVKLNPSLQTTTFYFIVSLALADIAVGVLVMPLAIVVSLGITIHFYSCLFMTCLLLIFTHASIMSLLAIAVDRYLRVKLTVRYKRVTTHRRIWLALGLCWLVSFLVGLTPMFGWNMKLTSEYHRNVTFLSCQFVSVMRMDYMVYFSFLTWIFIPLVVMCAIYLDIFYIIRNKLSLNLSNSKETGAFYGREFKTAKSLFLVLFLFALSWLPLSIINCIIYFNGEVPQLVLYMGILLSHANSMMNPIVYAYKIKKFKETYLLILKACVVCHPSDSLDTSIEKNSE
# assay_comment: Displacement of [125I]I-AB-MECA from human recombinant adenosine A3 receptor expressed in CHO cells at 20 uM after 60 mins by gamma counting
Numeric only. Scale: %

I have this molecule here, Cc1cc(C)nc(NC(=N)NCCc2c[nH]c3ccc(F)cc23)n1 , and I need its recorded Activity.
18

I have this molecule here, COc1ccc2c(c1)oc1c(-c3ccncc3)c(C#N)c(N)c(C#N)c12 , and I need its recorded Activity.
28

I have this molecule here, N=C(NCCc1c[nH]c2ccccc12)Nc1ncccn1 , and I need its recorded Activity.
8

I have this molecule here, Cc1cc(C)nc(NC(=N)NCCc2c[nH]c3ccccc23)n1 , and I need its recorded Activity.
16

I have this molecule here, Cc1ccc2nc(Nc3nc(C)cc(C)n3)[nH]c2c1 , and I need its recorded Activity.
15

I have this molecule here, Cc1cc(C)nc(NC(=N)NCCc2ccsc2)n1 , and I need its recorded Activity.
21

---

# system_tested: Cruzipain (Trypanosoma cruzi) (UniProt P25779)
# Sequence (P25779 123-467 limits assumed): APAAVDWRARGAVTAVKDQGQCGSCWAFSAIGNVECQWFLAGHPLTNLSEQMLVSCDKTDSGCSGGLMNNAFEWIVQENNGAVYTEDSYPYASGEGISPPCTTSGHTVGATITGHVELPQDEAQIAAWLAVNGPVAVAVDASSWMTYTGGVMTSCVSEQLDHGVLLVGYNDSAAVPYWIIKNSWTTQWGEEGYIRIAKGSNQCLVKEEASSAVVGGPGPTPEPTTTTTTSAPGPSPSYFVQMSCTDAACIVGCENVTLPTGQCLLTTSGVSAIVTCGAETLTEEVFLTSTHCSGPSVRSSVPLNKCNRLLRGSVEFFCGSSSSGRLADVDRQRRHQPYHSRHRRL
# assay_comment: Inhibition of Trypanosoma cruzi cruzain at 10 uM preincubated for 5 mins before substrate addition by spectrophotometry
# assay_context: in the assay text read “spectrofluorimetry” for “spectrophotometry”
Activity calls are given as the source filed them. The calls are words filed in the database; no cut-off is given here.
Outcomes you can answer with include only these: active, inactive

So what was the verdict on COc1ccc2c(c1)oc1c(-c3ccncc3)c(C#N)c(N)c(C#N)c12 in this test?
inactive

So what was the verdict on Cc1cc(C)nc(NC(=N)NCCc2c[nH]c3ccc(F)cc23)n1 in this test?
active

So what was the verdict on Cc1ccc2nc(Nc3nc(C)cc(C)n3)[nH]c2c1 in this test?
inactive

So what was the verdict on Cc1cccc(O[C@H](C)C(=O)Nc2nc(-c3ccccc3)n[nH]2)c1 in this test?
inactive

---

# system_tested: Adenosine receptor A1 (Homo sapiens) (UniProt P30542)
# Sequence (P30542 whole entry): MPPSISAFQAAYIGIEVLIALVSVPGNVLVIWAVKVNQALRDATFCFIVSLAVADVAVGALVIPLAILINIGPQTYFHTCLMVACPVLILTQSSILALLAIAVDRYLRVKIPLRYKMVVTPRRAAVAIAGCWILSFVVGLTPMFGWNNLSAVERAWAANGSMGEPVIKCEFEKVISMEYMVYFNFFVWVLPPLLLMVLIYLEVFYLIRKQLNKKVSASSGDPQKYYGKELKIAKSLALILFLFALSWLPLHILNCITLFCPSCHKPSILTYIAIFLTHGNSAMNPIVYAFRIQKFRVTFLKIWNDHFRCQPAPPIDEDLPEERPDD
# assay_comment: Displacement of [3H]R-PIA from human recombinant adenosine A1 receptor expressed in CHO cells at 20 uM after 60 mins by scintillation counting
# Format: cell-based
Rule: T for Activity not less than 6%, F for anything less.

Quick check, Activity >= 6%? Cc1cc(C)nc(NC(=N)NCCc2ccsc2)n1
F

Quick check, Activity >= 6%? COc1ccc2c(CCNC(=N)Nc3nc(C)cc(C)n3)c[nH]c2c1
F

Quick check, Activity >= 6%? COc1ccc2c(c1)oc1c(-c3ccncc3)c(C#N)c(N)c(C#N)c12
F

Quick check, Activity >= 6%? N=C(NCCc1c[nH]c2ccccc12)Nc1ncccn1
F

Quick check, Activity >= 6%? COc1ccc(-c2cc(=O)[nH]c(Nc3ccccc3)n2)cc1OC
F

Quick check, Activity >= 6%? CNc1ccccc1C(=O)/N=C(\N)Nc1nc(C)c2ccccc2n1
T

Quick check, Activity >= 6%? Cc1ccc2nc(Nc3nc(C)cc(C)n3)[nH]c2c1
T

Quick check, Activity >= 6%? COc1ccc(CCNC(=N)Nc2nc(C)cc(C)n2)cc1
T

Quick check, Activity >= 6%? Cc1cc(C)nc(NC(=N)NCCc2c[nH]c3ccccc23)n1
T

Quick check, Activity >= 6%? Cc1cc(C)nc(NC(=N)NCCc2c[nH]c3ccc(F)cc23)n1
T

---

# system_tested: Adenosine receptor A3 (Homo sapiens) (UniProt P0DMS8)
# assay_comment: Displacement of [125I]I-AB-MECA from human recombinant adenosine A3 receptor expressed in CHO cells at 20 uM after 60 mins by gamma counting
Assign Activity to each entry below.
Numeric only. Scale: %

I have this compound here, COc1ccc2c(CCNC(=N)Nc3nc(C)cc(C)n3)c[nH]c2c1 , and I need its recorded Activity.
20

I have this compound here, COc1ccc(CCNC(=N)Nc2nc(C)cc(C)n2)cc1 , and I need its recorded Activity.
9

I have this compound here, Cc1cccc(Nc2nc3c([nH]2)c(=O)n(C)c(=O)n3C)c1 , and I need its recorded Activity.
17

I have this compound here, CNc1ccccc1C(=O)/N=C(\N)Nc1nc(C)c2ccccc2n1 , and I need its recorded Activity.
8

I have this compound here, COc1ccc(-c2cc(=O)[nH]c(Nc3ccccc3)n2)cc1OC , and I need its recorded Activity.
37

---

# assay_comment: Colloidal aggregation at 10 uM by dynamic light scattering assay
# Format: physicochemical
metric_name: Activity

Cc1cccc(O[C@H](C)C(=O)Nc2nnc(-c3ccccc3)[nH]2)c1 ... Not Active
COc1ccc2c(c1)oc1c(-c3ccncc3)c(C#N)c(N)c(C#N)c12 ... Not Active
Cc1ccc2nc(Nc3nc(C)cc(C)n3)[nH]c2c1 ... Not Active
